Tested on: COLO 205
experiment.description: NCI tumour cell line growth inhibition, 48 h
The source made the active and inactive calls. Cut-off read from the data, not from the text of the source: active = GI50 up to about 1.1 µM and inactive = higher.
Provide the reported GI50 of each item.

Reported GI50 for COC(=O)[C@]1(C)CCC[C@@]2(C)C1CCC1=C[C@@]3(C(C)C)CC[C@]12OO3 (stereo not given in full) was 22.5 µM (inactive)

Lab note: measured GI50 of COc1ccc(-c2cc(-c3ccccc3)n(C3OC(COC(C)=O)C(OC(C)=O)C(OC(C)=O)C3OC(C)=O)c(=S)c2C#N)cc1 (stereo not given) was 11.3 µM (inactive)

Short answer for "COC(=O)/N=C(\NC(=O)OC)Nc1ccc(Oc2ccccc2)cc1NC=O" : GI50 was 0.2 µM (active)

Entry "O=c1/c(=C/c2ccccc2[N+](=O)[O-])sc2nnc(-c3ccco3)n12" — recorded GI50 = 30.4 µM (inactive)

According to the records, this compound "N#Cc1c(N)nc2[nH]nc(N)c2c1-c1ccc(Cl)cc1" displays GI50 of 1.48 µM (inactive)

Reported GI50 of COC(=O)C1=C(C(=O)OC)C2(C)Nc3ccccc3C2=C(c2ccccc2)C1 (stereo not given) : 19.2 µM (inactive)

Notebook: O=C1/C(=C/C=C/c2ccccc2)CCC1CNc1ccc(Br)cc1 (stereo not given) , GI50 read as 20.8 µM (inactive)

Item: "CCOC(=O)Cc1nc2nn(Cc3ccccc3)cc2c(=O)[nH]1" | GI50: > 100 µM (inactive)

So for "CCOC(=O)c1sc2nc1CSc1sc(=S)sc1SCc1nc(sc1C(=O)OCC)-c1nc(c(C(=O)OCC)s1)CSc1sc(=S)sc1SCc1nc-2sc1C(=O)OCC" , the logged GI50 turned out to be > 10 µM (inactive)

Just so you know, measured GI50 for CC1=C(C#N)C(=C(C#N)C#N)OC1(C)Cc1ccccc1 (stereo not given) came out at 21 µM (inactive)

The compound identified as "CC(C)(C)c1cc2c3c(c1)c(=O)c1cccc4c(O)c5cccc(c2=O)c5c-3c41" registered its GI50 at > 100 µM (inactive)

# compound "COc1cc2c(c(OC)c1OC)-c1ccc(SC)c(=O)cc1[C@@H](NC(=O)c1ccc(Cl)cc1)CC2" ; its GI50 = < 0.01 µM (active)

So, "O=c1[nH]c2cc(C(F)(F)F)ccc2nc1CBr" ? Its GI50 was 8.02 µM (inactive)

GI50 in this record for OCC12C3C4C5C3C1C5C42 (stereo not given) : > 100 µM (inactive)

// recorded GI50 for CC(C)CCC[C@@H](C)C1CCC2[C@@H]3CC=C4C[C@@H](OC(=O)CCC(=O)NCC[N+](C)(C)CCCS(=O)(=O)[O-])CC[C@]4(C)C3CC[C@@]21C (stereo not given in full) : 19.6 µM (inactive)

Short answer for CC(=O)NNC1=NN(C(C)=O)C2(S1)C(=O)Nc1ccc(Br)cc12 (stereo not given) : GI50 was > 10 µM (inactive)

Record "CNC(=S)N1CCN(C(C)=O)C1=S" . Reported GI50: 97.5 µM (inactive)

// sample CC12CCC(=O)N1c1cc([N+](=O)[O-])ccc1N2 (stereo not given) , its GI50 was > 100 µM (inactive)

Notebook: "COC(=O)CN1SC2(SC13C(C)(C)C(=O)C3(C)C)C(C)(C)C(=O)C2(C)C" , GI50 read as 37.3 µM (inactive)

Reported GI50 for "COc1ccc(-c2oc3c(OC)c(OC)c(OC)c(O)c3c(=O)c2OC)cc1OC" was 25.8 µM (inactive)

The value of GI50 measured for the compound "Cc1c(C=C(C#N)C#N)c(=O)n(C)c(=O)n1C" turned out to be > 100 µM (inactive)

Sample "COc1ccc(Br)c(N/N=C2\CCCNC2=O)c1" ; GI50 observed: 48 µM (inactive)

Entry CC(O)CCC(=O)c1ccoc1 (stereo not given) — recorded GI50 = 5580 µM (inactive)

"CSC(=S)Nc1cc(C)cc(C)n1" has a reported GI50 of > 31.6 µM (inactive)

For this compound ( "Nc1c(-c2ccc(Cl)c(Cl)c2)c2ccc([N+](=O)[O-])cc2c(=O)n1-c1nc2ccccc2s1" ), measured GI50 is 1.5 µM (inactive)

Measured GI50 of CN1N=CSC12C(=O)N(c1ccccc1)C(=O)N2c1ccccc1 (stereo not given) : > 100 µM (inactive)

Briefly, GI50 measured for "CC(C)c1cccc(C(C)C)c1NC(=O)/C(Cc1nc2ccc(Cl)cc2nc1O)=N\NC(=O)C[N+](C)(C)C" : > 100 µM (inactive)

For "CC(=O)C1=C(C)O[C@@H]2O[C@H](COCc3ccccc3)[C@@H](OCc3ccccc3)[C@H](O)[C@@H]2S1" the compound record lists GI50 as 22.2 µM (inactive)

Sample CCC(C)C(=O)OCC(=O)c1ccc(-c2ccccc2)cc1 (stereo not given) ; GI50 observed: > 100 µM (inactive)

Reported GI50 for COC(=O)C1=C(OC(=O)/C(=C/c2ccccc2)c2ccc(Cl)cc2)C(C(=O)OC)[C@@]2(O)[C@@H](C(=O)OC)[C@H](C)C[C@@H]1[C@@H]2C(=O)OC (stereo not given in full) was > 100 µM (inactive)

Field GI50 (entry "O=c1nc(NC(c2ccccc2)(c2ccccc2)c2ccccc2)ccn1CCCl" ) reads 25.6 µM (inactive)

Entry COC(=O)C1=C(C(=O)OC)N(c2ccncc2)C(c2ccco2)=CC1c1ccccc1[N+](=O)[O-] (stereo not given) ; GI50 = 4.75 µM (inactive)

get_value(item= "OC[C@H]1C[C@@H]2Cc3ccccc3N2N1" , readout=GI50) returns > 100 µM (inactive)

Query "CC[C@H](O)[C@H](C)C=C1SCCCS1" yields GI50 of > 100 µM (inactive)

According to the records, this compound O=C1c2ccccc2N(O)C1(c1ccccc1)C1CCCC=C1N1CCOCC1 (stereo not given) displays GI50 of > 100 µM (inactive)

// "C#CC(C)(C)OCCCCOc1cc(O)c2c(=O)c3ccccc3n(C)c2c1" : GI50 value = 23.7 µM (inactive)

GET /value?item= O=C1CCC2(c3ccccc3)Nc3ccccc3N12 (stereo not given) &field=GI50 returns > 100 µM (inactive)

Input CCCC(=O)NC(C(=O)OCC)(N1CCOCC1)C(F)(F)F (stereo not given) . Output GI50: > 100 µM (inactive)

Record CC1=C2CCCC2C/C(=N/Nc2ccc([N+](=O)[O-])cc2[N+](=O)[O-])CC1 (stereo not given) . Reported GI50: > 100 µM (inactive)

Documented GI50 of COc1cc(Br)c(CC2C3=C(CCN2C(=O)C2CCC2)CC2(CC3)OCCO2)cc1O (stereo not given) : 18.2 µM (inactive)
